Here, each record is paired with measured max activity data.
# Protocol Notes: inhibitors of Toxoplasma growth in IFN-γ-primed HeLa – cell-based, ME49Luc, luciferase, 72 h, dose response (AID 1259418)
# Test Context: T. gondii ME49Luc in IFN-y HeLa, hits give low values, -100% = high-dose IFN-γ control wells; at 19.5 µM unless noted
Out of some 3,400 compounds screened, about 840 (25%) were called active. Inconclusive results (about 11%) are left out. A selection follows. Potency and affinity values are given separately.

A selection of reference data follows.
NC(=O)C1(N2CCCCC2)CCN(c2ncc(NC(=O)c3ccc(Cl)cc3)cc2C(=O)O)CC1 : -11.3% [at 10 µM] (inactive)
Cc1ccc(NC(=O)N2CCN(Cc3nc(-c4ccccc4C)oc3C)CC2)cc1C : 8.71% [at 0.68 µM] (inactive)
CCOC(=O)CSC1=Nc2ccccc2C2=NC(CC(=O)NCc3ccc(F)cc3)C(=O)N12 (centres undefined) : 17.3% (inactive)

Need max activity, item CCc1ccc2c(c1)cc(S(=O)(=O)c1ccccc1)c(=O)n2CC(=O)NC1CCCC1
14.3% [at 0.16 µM] (inactive)

Need max activity, item Cc1ccc2c(c1)cc(S(=O)(=O)c1ccccc1)c(=O)n2CC(=O)NC1CCCC1
-10.6% [at 0.35 µM] (inactive)

* * *

# Protocol Notes: inhibitors of Toxoplasma growth in IFN-γ-primed HeLa – cell-based, ME49Luc, luciferase, 72 h, dose response (AID 1259418)
# Test Context: T. gondii ME49Luc in IFN-y HeLa, hits give low values, -100% = high-dose IFN-γ control wells; at 19.5 µM unless noted
Screen size: about 3,400 compounds; about 840 (25%) were called active. Roughly 11% stayed inconclusive and do not appear here. Only a sample is shown. Results with a measured potency or affinity are listed apart.
Recorded Endpoint: max activity

A selection of reference data follows.
Cc1nc(-c2cc(S(=O)(=O)N3CCC(C)CC3)c(C)s2)sc1C : -8.09% [at 0.68 µM] (inactive)
Cc1ccc(C)c(-c2coc(-c3ccc(NC(=O)NC4CCCC4)cc3)n2)c1 : 6.74% (inactive)
COc1ccc(-c2nc(N3CCN(c4cc(Cl)ccc4C)CC3)c3ccccc3n2)cc1 : 23.2% [at 1.35 µM] (inactive)
CCCc1ccc(S(=O)(=O)N2CCc3nc(-c4cccc(OC)c4)sc3C2)cc1 : -6.99% [at 2.6 µM] (inactive)

Need max activity, item COc1ccccc1-c1nc(Cn2nnc(-c3nc(-c4ccc(C(F)(F)F)cc4)no3)c2C)c(C)o1
8.9% (inactive)

Need max activity, item Cc1cccc(OCC(=O)N2CCC[C@@H]2C(=O)NCCc2csc(-c3ccccc3)n2)c1
9.84% [at 2.6 µM] (inactive)

Need max activity, item CCc1cccc(NC(=O)COc2nc(C)nc3ccccc23)c1
15.1% [at 0.16 µM] (inactive)

Need max activity, item CCOc1ccc(-c2nc3c(s2)CN(S(=O)(=O)c2ccccc2Cl)CC3)cc1
22.6% (inactive)

Need max activity, item COc1ccc(-c2nc3c(s2)CN(C(=O)Nc2ccccc2C)CC3)cc1OC
-11.5% [at 0.35 µM] (inactive)

Need max activity, item O=C(COc1ccccc1)N1CCC2(CC1)Nc1cc(F)ccc1-n1cccc12
10.6% [at 5 µM] (inactive)
